# assay-method-text: Compound 2 and metabolites in rat plasma, 50 mg/kg PO QD×10
# Assay type: in vivo
# run-conditions: rat plasma; Compound 2 50 mg/kg PO QD×10; 96 h post tenth dose
# Protocol: The proposed metabolite pathway was determined in vitro, and levels of potential metabolites were measured by LC/MS-MS in rat plasma remaining from the dose rising 10-day repeat dose study in rats. Six potential metabolites were quantified in the low (50 mg/kg) single dose rats. […] The male and female PK parameters were averaged together since there was <2-fold variation between the genders. All values deemed below the level of quantification (BLQ) were excluded from the PK parameters calculations.
assay-readout: Average Concentration

>>> experimental_value("CCn1c(C#CCNc2ccc(C)nc2)cc2cc(CNC3CCOCC3)ccc21 [Compound 8]")
"BLQ"
>>> experimental_value("CCn1c(C#CCNc2ccccc2)cc2cc(CNCc3ccccc3)ccc21 [Compound 4]")
"BLQ"
>>> experimental_value("CCn1c(C#CCNc2ccc(F)cc2)cc2cc(CNC)ccc21 [Compound 5]")
"1.27 ng/mL"
>>> experimental_value("CCn1c(C#CCNc2ccc(Cl)cc2)cc2cc(CNC3CCN(C)CC3)ccc21 [Compound 7]")
"BLQ"

====

# study-target: UniProtKB P11712
# assay-method-text: in vitro
# run-conditions: both, microsomes, pH 7.4, % of Control Enzyme Activity
assay-readout: activity at 30 min, 30 µM (%)

>>> experimental_value("O=C(O)COc1ccc(C(=O)c2cccs2)c(Cl)c1Cl")
3.84

====

# study-target: P-GP (Homo sapiens)
# Sequence (P08183 whole entry): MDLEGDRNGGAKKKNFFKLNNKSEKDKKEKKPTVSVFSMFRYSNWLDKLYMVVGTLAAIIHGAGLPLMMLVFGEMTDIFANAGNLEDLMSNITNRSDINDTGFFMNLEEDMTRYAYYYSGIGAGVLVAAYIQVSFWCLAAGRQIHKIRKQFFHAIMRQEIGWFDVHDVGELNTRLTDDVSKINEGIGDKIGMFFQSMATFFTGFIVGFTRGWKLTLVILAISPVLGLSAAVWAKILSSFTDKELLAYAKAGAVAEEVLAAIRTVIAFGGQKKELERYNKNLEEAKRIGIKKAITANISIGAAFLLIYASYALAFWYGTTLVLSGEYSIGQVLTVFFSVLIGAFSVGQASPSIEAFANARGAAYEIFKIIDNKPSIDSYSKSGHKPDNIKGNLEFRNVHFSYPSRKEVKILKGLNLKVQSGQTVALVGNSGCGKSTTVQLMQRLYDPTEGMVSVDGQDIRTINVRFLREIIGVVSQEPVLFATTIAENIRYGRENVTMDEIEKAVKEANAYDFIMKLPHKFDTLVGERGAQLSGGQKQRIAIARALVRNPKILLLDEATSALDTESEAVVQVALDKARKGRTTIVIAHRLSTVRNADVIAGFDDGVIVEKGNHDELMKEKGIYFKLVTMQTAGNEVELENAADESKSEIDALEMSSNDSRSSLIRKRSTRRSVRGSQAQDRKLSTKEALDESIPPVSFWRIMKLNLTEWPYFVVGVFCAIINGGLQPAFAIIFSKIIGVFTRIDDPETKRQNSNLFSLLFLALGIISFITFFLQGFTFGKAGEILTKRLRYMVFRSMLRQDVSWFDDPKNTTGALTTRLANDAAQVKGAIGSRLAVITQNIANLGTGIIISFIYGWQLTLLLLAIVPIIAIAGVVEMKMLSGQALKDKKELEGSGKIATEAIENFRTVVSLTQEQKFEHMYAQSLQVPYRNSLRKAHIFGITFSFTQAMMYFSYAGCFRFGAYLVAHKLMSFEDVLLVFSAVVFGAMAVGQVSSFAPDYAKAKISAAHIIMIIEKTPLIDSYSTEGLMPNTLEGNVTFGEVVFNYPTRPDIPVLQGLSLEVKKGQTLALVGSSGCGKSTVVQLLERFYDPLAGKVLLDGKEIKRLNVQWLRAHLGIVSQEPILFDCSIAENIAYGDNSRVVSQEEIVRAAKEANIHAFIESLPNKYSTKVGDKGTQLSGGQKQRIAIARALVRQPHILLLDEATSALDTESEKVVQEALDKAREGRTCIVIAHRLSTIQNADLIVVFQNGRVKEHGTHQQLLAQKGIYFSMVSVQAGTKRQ
# assay-method-text: in vitro
# run-conditions: Caco-2, pH 7.4, Papp AVG
assay-readout: Papp B→A at 120 min, 10 μM (×10⁻⁶ cm/s)

>>> experimental_value("C[C@H]1O[C@@H](O[C@H]2[C@@H](O)C[C@H](O[C@H]3[C@@H](O)C[C@H](O[C@H]4CC[C@@]5(C)[C@H](CC[C@@H]6[C@@H]5C[C@@H](O)[C@]5(C)[C@@H](C7=CC(=O)OC7)CC[C@]65O)C4)O[C@@H]3C)O[C@@H]2C)C[C@H](O)[C@@H]1O")
10.9

====

# study-target: CYP2C9 (Homo sapiens)
# Sequence (P11712 whole entry): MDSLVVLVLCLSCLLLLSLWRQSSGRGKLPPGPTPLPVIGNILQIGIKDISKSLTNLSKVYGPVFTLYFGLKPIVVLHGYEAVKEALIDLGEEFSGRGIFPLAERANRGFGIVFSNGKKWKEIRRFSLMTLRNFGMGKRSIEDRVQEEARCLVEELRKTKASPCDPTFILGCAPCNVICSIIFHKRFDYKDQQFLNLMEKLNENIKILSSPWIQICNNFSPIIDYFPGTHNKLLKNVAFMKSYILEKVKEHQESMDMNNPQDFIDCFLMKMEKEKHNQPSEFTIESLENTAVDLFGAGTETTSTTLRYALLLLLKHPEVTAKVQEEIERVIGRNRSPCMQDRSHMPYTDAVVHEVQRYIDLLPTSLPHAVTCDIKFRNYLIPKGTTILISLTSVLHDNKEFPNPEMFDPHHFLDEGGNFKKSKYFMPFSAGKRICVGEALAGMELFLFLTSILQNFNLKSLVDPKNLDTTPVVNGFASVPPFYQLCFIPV
# assay-method-text: in vitro
# run-conditions: both, microsomes, pH 7.4, % of Control Enzyme Activity
assay-readout: activity at 20 min, 30 µM

>>> experimental_value("O=C(O)COc1ccc(C(=O)c2cccs2)c(Cl)c1Cl")
"8.14%"

====

# study-target: BCRP (Homo sapiens, UniProt Q9UNQ0)
# assay-method-text: BCRP substrate assessment, BCRP-MDCK monolayers
# Assay type: in vitro ADME
# run-conditions: dog, pH 7.4, BCRP-MDCK; Cladribine; B-to-A
assay-readout: recovery at 120 min (%)

>>> experimental_value("Nc1nc(Cl)nc2c1ncn2[C@H]1C[C@H](O)[C@@H](CO)O1 [Cladribine, cladribine]")
92.9

====

# study-target: BCRP (Homo sapiens)
# Sequence (Q9UNQ0 1-655): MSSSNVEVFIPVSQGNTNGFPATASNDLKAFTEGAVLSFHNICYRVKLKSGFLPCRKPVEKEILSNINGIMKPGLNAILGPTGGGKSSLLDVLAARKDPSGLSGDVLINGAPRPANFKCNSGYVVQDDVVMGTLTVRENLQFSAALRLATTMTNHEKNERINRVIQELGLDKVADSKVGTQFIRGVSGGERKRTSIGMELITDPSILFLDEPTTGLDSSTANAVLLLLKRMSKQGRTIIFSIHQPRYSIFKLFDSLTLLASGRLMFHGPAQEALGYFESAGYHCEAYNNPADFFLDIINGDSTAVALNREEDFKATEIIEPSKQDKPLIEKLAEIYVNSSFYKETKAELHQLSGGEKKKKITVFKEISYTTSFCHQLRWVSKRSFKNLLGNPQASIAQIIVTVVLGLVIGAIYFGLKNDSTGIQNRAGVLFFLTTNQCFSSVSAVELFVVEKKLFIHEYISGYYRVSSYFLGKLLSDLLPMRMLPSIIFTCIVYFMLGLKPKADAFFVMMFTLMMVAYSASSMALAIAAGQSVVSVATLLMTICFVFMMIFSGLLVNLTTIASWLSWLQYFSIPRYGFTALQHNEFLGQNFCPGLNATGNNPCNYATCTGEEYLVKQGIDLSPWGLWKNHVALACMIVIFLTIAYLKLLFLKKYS
# assay-method-text: BCRP substrate assessment, BCRP-MDCK monolayers
# Format: in vitro ADME
# run-conditions: dog, pH 7.4; BCRP-MDCK; Cladribine
assay-readout: efflux ratio at 120 min

>>> experimental_value("Nc1nc(Cl)nc2c1ncn2[C@H]1C[C@H](O)[C@@H](CO)O1")
83.3
